Species: Homo sapiens
protocol.text: Selectivity for MMP13 over MMP8
reported.property: Selectivity ratio
// print number alone

Record CCOCCC1(Oc2ccc(Oc3ccc(-c4cc(-c5ccccc5)no4)cc3)cc2)C(=O)NC(=O)NC1=O . Reported Selectivity ratio: 571

Record COCCC1(Oc2ccc(Oc3ccc(-c4nc(-c5ccccc5F)co4)cc3)cc2)C(=O)NC(=O)NC1=O . Reported Selectivity ratio: 149

Record CCOCCC1(Oc2ccc(Oc3ccc(-c4ncc(-c5ccccc5)o4)cc3)cc2)C(=O)NC(=O)NC1=O . Reported Selectivity ratio: 43

Record CCOCCC1(Oc2ccc(Oc3ccc(-c4cnc(-c5ccccc5)o4)cc3)cc2)C(=O)NC(=O)NC1=O . Reported Selectivity ratio: 212
